- study target: α4β7 integrin on human cells (human, UniProt P13612 34-1032; P26010 20-798)
- experiment notes: cell-based or functional assay
Bridge positions count the residues as written; N and C are the ends. Square brackets hold non-standard residues; d marks the D form. Ends that are not written are not given here. 2Nal = N[C@@H](Cc1ccc2ccccc2c1)C(=O)O; NMeR = CN[C@@H](CCCNC(=N)N)C(=O)O; Pen = CC(C)(S)[C@H](N)C(=O)O; Dab = NCC[C@H](N)C(=O)O
metric: α4β7 cell (Hu) IC50

Any idea what α4β7 cell (Hu) IC50 was measured for Ac-[Pen][NMeR]SDTL[Pen][2Nal]Y[dK]-NH2 (disulfide 1-7 (inferred); also: homodimer via DIG) [SEQ ID NO 23] ? ≤ 10 nM

# α4β7 cell (Hu) IC50 lookup, item Ac-[Pen][NMeR]SDTL[Pen]WE[Dab] (disulfide 1-7 (inferred); not fully specified (residue 10); printed as Ac-Pen-(N-Me-R)-S-D-T-L-Pen-W-E-Dab-Ac) [SEQ ID NO 62] > 1000 nM

The measured values listed here are drawn from patent US20160159862A1.
